# MEASUREMENT_TARGET: trypsin (Bos taurus, UniProt P00760)
# Construct: from tissue; host or cells: bovine pancreas
# Sequence (P00760 24-246): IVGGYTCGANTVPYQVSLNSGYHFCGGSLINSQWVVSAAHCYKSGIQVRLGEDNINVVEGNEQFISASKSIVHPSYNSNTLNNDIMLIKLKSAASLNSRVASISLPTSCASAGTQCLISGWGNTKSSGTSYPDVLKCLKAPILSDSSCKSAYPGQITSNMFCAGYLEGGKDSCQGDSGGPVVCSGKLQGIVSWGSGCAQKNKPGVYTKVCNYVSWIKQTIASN
# ASSAY_NOTES: Chromogenic assay, trypsin inhibition (substrate S2222)
# Type: biochemical
# EXPERIMENTAL_CONTEXT: in vitro; bovine pancreatic trypsin; Ki calculated from substrate Km and IC50; pH 8.0, 30° C.
Where a name gives a salt, the structure may show the parent alone.
ASSAY_READOUT: Ki (µM)

a. C[C@@H]1CCN(C(=O)[C@H](CC2=CCCN(C(=N)N)C2)NS(=O)(=O)c2ccc3c(c2)CN(C)CC3)[C@H](C(=O)O)C1 [Example 5, dihydrochloride]
b. C[C@H]1CCN(C(=O)[C@H](CC2=CCCN(C(=N)N)C2)NS(=O)(=O)c2ccc3c(c2)CN(C)CC3)[C@@H](C(=O)O)C1 [Example 6, dihydrochloride]
Between a and b , which one shows the smaller Ki number? State your choice using its label.
b
